Molecular target: 15N-labeled human ZG16p(21–167) (Homo sapiens, UniProt O60844)
Construct: gene ZG16; residues 21-167 (signal peptide removed), 15N-labelled, E. coli pCold-PDI vector, tag removed as for the other construct; the purification says 21-159 for the same labelled protein; monomer
Sequence (O60844 21-167): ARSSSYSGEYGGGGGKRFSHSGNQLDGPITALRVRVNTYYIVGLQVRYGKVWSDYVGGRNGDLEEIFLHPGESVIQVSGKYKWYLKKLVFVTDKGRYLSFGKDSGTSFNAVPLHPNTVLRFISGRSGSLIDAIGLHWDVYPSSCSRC
Test: 1H-15N HSQC NMR titration
Type: binding
Readout Name: pKd
API: returns pKd as number; meaning -log10 of concentration in mol/L.

Given the compound C[C@@H](O[C@H]1O[C@H](CO)[C@@H](O)[C@H](O)[C@@H]1O)[C@H](N)C(=O)O , what is its reported pKd?
1.72

###

Kindly supply the reported Kd values for the records listed here.
Molecular target: 15N-labeled human ZG16p(21–167) (Homo sapiens)
Construct: gene ZG16; residues 21-167 (signal peptide removed), 15N-labelled, E. coli pCold-PDI vector, tag removed as for the other construct; the purification says 21-159 for the same labelled protein; monomer
Test: 1H-15N HSQC NMR titration
Format: binding
Conditions: PBS pH 6.5, 10% D2O, 298 K; mannose-binding pocket
Respond with the bare value in mM.

Given the compound OC[C@H]1O[C@H](O[C@H]2[C@H](O)[C@@H](CO)OC(O)[C@H]2O)[C@@H](O)[C@@H](O)[C@@H]1O (some centres unmarked) [Manα1–3Man] , what is its reported Kd?
13

Given the compound OC[C@H]1O[C@@H](O[C@H]2[C@H](O)[C@@H](CO)OC(O)[C@@H]2O)[C@H](O)[C@@H](O)[C@@H]1O (some centres unmarked) [Glcβ1–3Glc] , what is its reported Kd?
7
